These data points were gathered from patent US20220213341A1.

# assay_text: MEK solubility of the dyes
# Assay type: physicochemical
# condition_description: solubility in methyl ethyl ketone at 20° C.
Reported values of MEK Solubility for individual entries

molecule	unit	MEK Solubility
CCCCC(CC)COCCCNCCS(=O)(=O)c1ccc(/N=N/c2c(S(=O)(=O)O)cc3cc(S(=O)(=O)O)c(/N=N/c4ccc(S(=O)(=O)CCNCCCOCC(CC)CCCC)cc4)c(O)c3c2N)cc1 (stereo not drawn)	mass %	10
CCCCCCCCN(CCCCCCCC)CCS(=O)(=O)c1ccc(/N=N/c2c(S(=O)(=O)O)cc3cc(S(=O)(=O)O)c(/N=N/c4ccc(S(=O)(=O)CCN(CCCCCCCC)CCCCCCCC)cc4)c(O)c3c2N)cc1	mass %	10
CCCCCCCCCCCCSCCS(=O)(=O)c1ccc(/N=N/c2c(S(=O)(=O)O)cc3cc(S(=O)(=O)O)c(/N=N/c4ccc(S(=O)(=O)CCSCCCCCCCCCCCC)cc4)c(O)c3c2N)cc1	mass %	10
